Exercise: for every item that follows, state its recorded Ki.
# Assayed Target: Receptor-type tyrosine-protein phosphatase F (Homo sapiens, UniProt P10586)
# Sequence (P10586 whole entry): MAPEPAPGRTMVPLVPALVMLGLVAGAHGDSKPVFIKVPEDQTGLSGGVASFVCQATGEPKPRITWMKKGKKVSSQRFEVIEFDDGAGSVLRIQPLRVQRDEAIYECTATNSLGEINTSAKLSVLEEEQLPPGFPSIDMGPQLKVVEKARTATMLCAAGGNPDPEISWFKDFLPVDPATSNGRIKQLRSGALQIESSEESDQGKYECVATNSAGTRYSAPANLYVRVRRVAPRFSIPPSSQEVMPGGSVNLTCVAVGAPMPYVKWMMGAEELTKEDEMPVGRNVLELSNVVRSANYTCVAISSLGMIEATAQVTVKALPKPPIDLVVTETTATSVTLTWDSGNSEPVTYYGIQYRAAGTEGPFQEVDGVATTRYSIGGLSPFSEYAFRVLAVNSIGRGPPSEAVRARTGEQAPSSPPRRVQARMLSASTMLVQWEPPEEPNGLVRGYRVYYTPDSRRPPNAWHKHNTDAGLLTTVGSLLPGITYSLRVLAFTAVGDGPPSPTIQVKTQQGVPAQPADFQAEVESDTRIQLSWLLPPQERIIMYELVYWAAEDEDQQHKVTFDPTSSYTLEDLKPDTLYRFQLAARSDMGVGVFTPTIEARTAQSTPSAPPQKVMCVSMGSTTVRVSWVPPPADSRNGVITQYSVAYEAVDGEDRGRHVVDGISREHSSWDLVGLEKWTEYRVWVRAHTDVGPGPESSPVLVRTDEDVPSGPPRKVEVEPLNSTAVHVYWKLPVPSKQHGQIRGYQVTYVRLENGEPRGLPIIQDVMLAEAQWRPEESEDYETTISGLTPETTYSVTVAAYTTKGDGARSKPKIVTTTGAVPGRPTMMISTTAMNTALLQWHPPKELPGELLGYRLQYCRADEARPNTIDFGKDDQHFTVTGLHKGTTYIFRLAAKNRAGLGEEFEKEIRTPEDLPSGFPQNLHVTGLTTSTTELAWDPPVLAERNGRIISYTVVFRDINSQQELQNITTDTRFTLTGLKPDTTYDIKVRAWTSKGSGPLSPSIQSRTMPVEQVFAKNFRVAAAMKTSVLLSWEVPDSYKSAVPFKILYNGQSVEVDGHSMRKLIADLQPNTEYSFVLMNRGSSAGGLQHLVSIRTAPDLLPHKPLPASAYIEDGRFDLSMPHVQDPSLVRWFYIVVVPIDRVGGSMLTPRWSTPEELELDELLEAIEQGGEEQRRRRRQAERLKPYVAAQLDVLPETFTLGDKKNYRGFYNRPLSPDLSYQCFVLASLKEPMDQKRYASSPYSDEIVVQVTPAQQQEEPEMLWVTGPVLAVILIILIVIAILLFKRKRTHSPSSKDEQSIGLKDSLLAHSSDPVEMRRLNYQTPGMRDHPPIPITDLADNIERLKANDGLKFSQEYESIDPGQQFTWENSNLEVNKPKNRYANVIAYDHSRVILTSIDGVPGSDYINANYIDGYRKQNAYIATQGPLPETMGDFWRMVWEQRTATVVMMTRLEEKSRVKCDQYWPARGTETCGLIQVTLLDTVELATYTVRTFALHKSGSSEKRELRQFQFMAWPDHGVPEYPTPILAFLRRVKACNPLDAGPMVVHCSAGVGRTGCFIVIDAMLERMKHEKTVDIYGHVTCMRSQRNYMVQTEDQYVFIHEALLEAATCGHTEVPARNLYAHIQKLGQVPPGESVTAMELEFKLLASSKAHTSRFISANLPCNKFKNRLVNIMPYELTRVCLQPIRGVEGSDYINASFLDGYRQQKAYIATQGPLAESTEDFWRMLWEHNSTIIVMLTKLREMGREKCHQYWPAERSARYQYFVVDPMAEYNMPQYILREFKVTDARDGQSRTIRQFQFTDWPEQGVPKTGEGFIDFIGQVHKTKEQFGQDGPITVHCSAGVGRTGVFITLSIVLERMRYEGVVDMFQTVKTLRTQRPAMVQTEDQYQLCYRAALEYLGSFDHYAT
# Test Name: Inhibition of human recombinant LAR

Check out these entries, answers already filled in.
chemical_structure=CC1(C)CC(Nc2cccc(-c3sc(C(=O)O)c(OCC(=O)O)c3Br)c2)CC(C)(C)C1 result="> 1000 µM"
chemical_structure=O=C(O)COc1c(C(=O)O)sc(-c2cccc(NC3CCN(S(=O)(=O)Cc4ccccc4)CC3)c2)c1Br result="> 500 µM"

Item O=C(O)COc1c(C(=O)O)sc(-c2ccccc2)c1Br has what recorded Ki?
> 500 µM

---

# Test Name: Drug level in C57/B6 mouse liver at 10 mg/kg, ip after 1 hr
# Format: ADME, organism-based
# Design: dose 10 mg/kg, route intraperitoneal
# Test Conditions: read-out: Drug uptake
Measurement Type: concentration at 1 h (µM)
Give bare numbers, in µM.

Which concentration at 1 h reading was recorded for the molecule O=C(O)COc1c(C(=O)O)sc(-c2cccc(NC3CCN(S(=O)(=O)Cc4ccccc4)CC3)c2)c1Br ?
6.9

Reference source for all entries: ChEMBL document CHEMBL1148776
